biological target: Prostaglandin G/H synthase 1 (Rattus norvegicus); format: functional; also: assay procedure not described here
Sequence (Q63921 whole entry): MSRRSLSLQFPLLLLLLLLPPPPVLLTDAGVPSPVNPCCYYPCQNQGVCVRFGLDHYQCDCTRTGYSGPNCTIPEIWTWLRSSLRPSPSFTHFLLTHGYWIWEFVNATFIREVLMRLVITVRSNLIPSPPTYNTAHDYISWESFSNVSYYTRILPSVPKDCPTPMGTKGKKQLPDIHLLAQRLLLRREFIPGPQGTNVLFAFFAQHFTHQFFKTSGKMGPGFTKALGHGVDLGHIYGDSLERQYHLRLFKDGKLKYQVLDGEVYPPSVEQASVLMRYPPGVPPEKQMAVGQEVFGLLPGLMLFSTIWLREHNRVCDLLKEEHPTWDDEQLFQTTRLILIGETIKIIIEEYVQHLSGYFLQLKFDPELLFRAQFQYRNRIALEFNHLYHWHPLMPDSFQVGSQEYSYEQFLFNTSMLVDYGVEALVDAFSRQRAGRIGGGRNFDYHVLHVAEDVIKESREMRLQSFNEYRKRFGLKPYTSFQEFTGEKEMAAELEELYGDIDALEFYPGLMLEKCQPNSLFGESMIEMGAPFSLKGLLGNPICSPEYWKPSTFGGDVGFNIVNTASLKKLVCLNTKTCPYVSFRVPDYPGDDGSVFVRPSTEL
Some compounds, each annotated with its measured AC50.

Worked examples, 3 compounds total:
compound	result
NC1CCN(c2nc3c(cc2F)c(=O)c(C(=O)O)cn3-c2ccc(F)cc2F)C1 (stereo not drawn) [TOSUFLOXACIN]	> 10 µM
CC(=O)O[C@H](CC(=O)[O-])C[N+](C)(C)C [ACETYLCARNITINE]	> 10 µM
CCCC(CCC)C(=O)O [VALPROIC ACID]	> 30 µM

Ask: Return AC50 (reported value) for this compound: CCC(=O)O[C@H]1CC[C@H]2[C@@H]3CCC4=CC(=O)CC[C@]4(C)[C@H]3CC[C@]12C [TESTOSTERONE PROPIONATE]
Reply: > 10 µM

Ask: Please indicate AC50 recorded for CCCCCCCCCCCCCCCCCCCCCC(=O)Nc1ccn([C@@H]2O[C@H](CO)[C@@H](O)[C@@H]2O)c(=O)n1 [ENOCITABINE]
Reply: > 30 µM

----------
Recorded below: AC50, system UniProt P25021.
Sequence (P25021 whole entry): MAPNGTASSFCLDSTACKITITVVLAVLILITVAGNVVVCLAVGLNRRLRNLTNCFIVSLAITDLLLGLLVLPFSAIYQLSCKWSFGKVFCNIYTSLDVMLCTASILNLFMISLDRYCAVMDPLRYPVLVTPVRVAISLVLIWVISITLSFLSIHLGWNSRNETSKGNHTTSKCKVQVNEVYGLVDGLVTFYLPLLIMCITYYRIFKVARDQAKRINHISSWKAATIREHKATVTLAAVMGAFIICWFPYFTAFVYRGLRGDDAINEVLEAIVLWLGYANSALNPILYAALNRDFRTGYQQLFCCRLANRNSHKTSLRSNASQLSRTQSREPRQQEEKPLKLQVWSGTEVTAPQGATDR

In the examples that follow, each entry is paired with its recorded AC50.
molecule	AC50
C[C@H]1c2cccc(O)c2C(=O)C2=C(O)[C@]3(O)C(=O)C(C(N)=O)=C(O)[C@@H](N(C)C)[C@@H]3[C@@H](O)[C@@H]21	> 10 µM
CCC(=O)O[C@]1(C(=O)SCF)[C@H](C)C[C@H]2[C@@H]3C[C@H](F)C4=CC(=O)C=C[C@]4(C)[C@@]3(F)[C@@H](O)C[C@@]21C [FLUTICASONE PROPIONATE]	> 10 µM

Ask: Output measured AC50 for this item: "CN(C)CCc1c[nH]c2ccc(Cn3cncn3)cc12"
Reply: > 10 µM

----------
As shown below, each of these compounds has a reported AC50 value.
target: Gamma-aminobutyric acid receptor subunit alpha-1/alpha-2/beta-2/gamma-2 (Homo sapiens, UniProt P14867+P18507+P47869+P47870); format: functional, cell-based; also: assay procedure not described here
Sequence (P14867 whole entry): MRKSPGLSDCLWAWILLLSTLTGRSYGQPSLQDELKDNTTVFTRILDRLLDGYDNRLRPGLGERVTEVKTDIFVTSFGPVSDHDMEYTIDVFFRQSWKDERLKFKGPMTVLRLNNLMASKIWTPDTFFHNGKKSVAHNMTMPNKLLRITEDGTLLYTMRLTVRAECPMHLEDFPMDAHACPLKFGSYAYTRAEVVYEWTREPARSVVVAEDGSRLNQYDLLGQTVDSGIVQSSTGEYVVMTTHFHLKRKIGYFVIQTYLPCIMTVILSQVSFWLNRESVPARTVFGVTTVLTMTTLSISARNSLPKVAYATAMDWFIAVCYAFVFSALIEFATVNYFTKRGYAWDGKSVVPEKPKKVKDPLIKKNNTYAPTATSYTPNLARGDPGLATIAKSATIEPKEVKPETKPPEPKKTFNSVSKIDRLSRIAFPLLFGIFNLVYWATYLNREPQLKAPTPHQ
Sequence (P47870 whole entry): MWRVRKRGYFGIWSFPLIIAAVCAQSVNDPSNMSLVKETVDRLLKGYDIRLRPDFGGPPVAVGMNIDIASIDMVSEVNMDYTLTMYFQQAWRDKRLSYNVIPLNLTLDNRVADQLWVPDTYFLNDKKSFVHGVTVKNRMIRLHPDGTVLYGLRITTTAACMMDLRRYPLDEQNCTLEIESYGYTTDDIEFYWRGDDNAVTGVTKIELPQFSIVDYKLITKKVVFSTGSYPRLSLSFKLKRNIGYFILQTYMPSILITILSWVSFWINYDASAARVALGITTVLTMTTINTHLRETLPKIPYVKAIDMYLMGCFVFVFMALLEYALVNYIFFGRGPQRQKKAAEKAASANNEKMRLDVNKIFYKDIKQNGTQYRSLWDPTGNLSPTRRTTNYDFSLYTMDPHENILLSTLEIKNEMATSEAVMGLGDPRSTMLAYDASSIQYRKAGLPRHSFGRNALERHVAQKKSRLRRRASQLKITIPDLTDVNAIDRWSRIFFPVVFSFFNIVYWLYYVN
Sequence (P18507 whole entry): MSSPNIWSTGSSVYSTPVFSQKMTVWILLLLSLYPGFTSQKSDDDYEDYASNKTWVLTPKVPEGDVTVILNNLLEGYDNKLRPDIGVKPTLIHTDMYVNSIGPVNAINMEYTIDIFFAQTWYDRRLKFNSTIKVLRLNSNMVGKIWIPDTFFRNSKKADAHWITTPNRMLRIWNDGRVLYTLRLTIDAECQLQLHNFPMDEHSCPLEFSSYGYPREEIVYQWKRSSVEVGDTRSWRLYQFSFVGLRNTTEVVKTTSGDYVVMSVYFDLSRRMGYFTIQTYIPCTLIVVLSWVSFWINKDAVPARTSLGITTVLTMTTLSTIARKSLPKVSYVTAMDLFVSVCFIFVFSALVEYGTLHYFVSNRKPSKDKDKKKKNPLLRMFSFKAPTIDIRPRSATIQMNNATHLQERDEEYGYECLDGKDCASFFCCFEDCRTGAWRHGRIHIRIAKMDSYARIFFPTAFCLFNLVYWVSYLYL
Sequence (P47869 whole entry): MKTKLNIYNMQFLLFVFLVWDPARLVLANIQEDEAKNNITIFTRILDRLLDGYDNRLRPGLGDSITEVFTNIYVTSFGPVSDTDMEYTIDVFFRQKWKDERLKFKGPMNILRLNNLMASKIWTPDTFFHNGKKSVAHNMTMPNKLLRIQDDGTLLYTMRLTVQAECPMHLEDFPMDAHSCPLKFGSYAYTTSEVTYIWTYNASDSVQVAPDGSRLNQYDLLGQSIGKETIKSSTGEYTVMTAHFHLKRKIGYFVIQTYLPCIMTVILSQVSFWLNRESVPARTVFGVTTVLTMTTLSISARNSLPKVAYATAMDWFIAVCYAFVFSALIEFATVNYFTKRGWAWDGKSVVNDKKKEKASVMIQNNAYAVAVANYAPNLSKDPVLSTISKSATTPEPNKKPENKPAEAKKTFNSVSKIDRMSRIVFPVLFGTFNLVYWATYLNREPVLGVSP

compound	readout_name	result
N[C@@H](CC(=O)N1CCn2c(nnc2C(F)(F)F)C1)Cc1cc(F)c(F)cc1F [SITAGLIPTIN]	AC50	> 30 µM
OC[C@H]1O[C@@](CO)(O[C@H]2O[C@H](CO)[C@@H](O)[C@H](O)[C@H]2O)[C@@H](O)[C@@H]1O [SUCROSE]	AC50	> 30 µM
CC(C)c1nc(N(C)S(C)(=O)=O)nc(-c2ccc(F)cc2)c1/C=C/[C@@H](O)C[C@@H](O)CC(=O)O [ROSUVASTATIN]	AC50	> 30 µM
C[C@@H](NCCCc1cccc(C(F)(F)F)c1)c1cccc2ccccc12	AC50	> 30 µM

API: the following record is the query input.
Ask: Fill in AC50 for record CCCN(CCC)C(=O)Cc1c(-c2ccc(Cl)cc2)nc2ccc(Cl)cn12 [ALPIDEM]
Reply: > 10 µM

----------
Data export: AC50 values recorded with Melanocortin receptor 3 (Homo sapiens, UniProt P41968).
Sequence (P41968 whole entry): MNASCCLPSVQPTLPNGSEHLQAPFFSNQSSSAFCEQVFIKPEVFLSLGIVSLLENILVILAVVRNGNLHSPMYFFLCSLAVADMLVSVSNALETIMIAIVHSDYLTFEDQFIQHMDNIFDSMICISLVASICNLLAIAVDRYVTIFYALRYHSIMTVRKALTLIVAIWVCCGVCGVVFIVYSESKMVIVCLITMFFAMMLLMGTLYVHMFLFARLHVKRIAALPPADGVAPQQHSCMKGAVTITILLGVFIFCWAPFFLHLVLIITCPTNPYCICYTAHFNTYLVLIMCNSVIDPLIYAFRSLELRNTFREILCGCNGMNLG

Completed entries (count: 3):
compound	AC50
CCOC(=O)C1=C(C)NC(C)=C(C(=O)OC)C1c1cccc([N+](=O)[O-])c1 (configuration not stated) [NITRENDIPINE]	> 30 µM
CN1CCN(C2=Nc3ccccc3Oc3ccc(Cl)cc32)CC1 [LOXAPINE]	> 30 µM
CCC(=O)O[C@H]1CC[C@H]2[C@@H]3CCC4=CC(=O)CC[C@]4(C)[C@H]3CC[C@]12C [TESTOSTERONE PROPIONATE]	> 10 µM

Ask: Please report AC50 with Melanocortin receptor 3 (Homo sapiens, UniProt P41968) for item CCN(CC)CCNC(=O)c1cc(S(C)(=O)=O)ccc1OC [TIAPRIDE] .
Reply: > 30 µM

Ask: Output reported AC50 of the compound COc1ccc2nc3cc(Cl)ccc3c(Nc3cc(CN4CCCC4)c(O)c(CN4CCCC4)c3)c2n1 [PYRONARIDINE] on Melanocortin receptor 3 (Homo sapiens, UniProt P41968).
Reply: > 30 µM

Ask: Identify measured AC50 obtained with Melanocortin receptor 3 (Homo sapiens, UniProt P41968) for CC(C)c1nc(N(C)S(C)(=O)=O)nc(-c2ccc(F)cc2)c1/C=C/[C@@H](O)C[C@@H](O)CC(=O)O [ROSUVASTATIN] .
Reply: > 30 µM

Ask: Write down the reported AC50 (system: Melanocortin receptor 3 (Homo sapiens, UniProt P41968)) of CCCC(CCC)C(N)=O [VALPROMIDE]; also: assay procedure not described here
Reply: > 30 µM

Ask: Name the value of AC50 reported for Cn1cnc2c(F)c(Nc3ccc(Br)cc3Cl)c(C(=O)NOCCO)cc21 [SELUMETINIB] when tested on Melanocortin receptor 3 (Homo sapiens, UniProt P41968). Also: assay procedure not described here.
Reply: > 30 µM

Ask: Identify measured AC50 obtained with Melanocortin receptor 3 (Homo sapiens, UniProt P41968) for Nc1ncn([C@H]2C[C@H](O)[C@@H](CO)O2)c(=O)n1 [DECITABINE] .
Reply: > 30 µM

Ask: Look up and report AC50, with Melanocortin receptor 3 (Homo sapiens, UniProt P41968) as system, for C/C(=C\C(=O)OCCCCCCCCC(=O)O)C[C@@H]1OC[C@H](C[C@@H]2O[C@H]2[C@@H](C)[C@H](C)O)[C@@H](O)[C@H]1O [MUPIROCIN]
Reply: > 10 µM

Ask: Give AC50 only, for CC(=O)O[C@]1(C(C)=O)CC[C@H]2[C@@H]3C=C(C)C4=CC(=O)CC[C@@H]4[C@H]3CC[C@@]21C [NOMEGESTROL ACETATE] , using Melanocortin receptor 3 (Homo sapiens, UniProt P41968) data.
Reply: > 30 µM

Ask: Using Melanocortin receptor 3 (Homo sapiens, UniProt P41968) as the test system, report measured AC50 of C[C@H](CCC(=O)O)[C@H]1CC[C@H]2[C@@H]3[C@@H](O)C[C@@H]4C[C@H](O)CC[C@]4(C)[C@H]3CC[C@]12C [URSODIOL] .
Reply: > 30 µM

Ask: Look up and report AC50, with Melanocortin receptor 3 (Homo sapiens, UniProt P41968) as system, for CC1OC2(CS1)CN1CCC2CC1 (configuration not stated) [CEVIMELINE]
Reply: > 10 µM

Ask: Param request: AC50 | system Melanocortin receptor 3 (Homo sapiens, UniProt P41968) | item CC(C)Cc1ccc(C(C)C(=O)O)cc1 (configuration not stated) [IBUPROFEN]; also: assay procedure not described here
Reply: > 30 µM

Ask: Retrieve AC50 on Melanocortin receptor 3 (Homo sapiens, UniProt P41968); query C#C[C@]1(OC(C)=O)CC[C@H]2[C@@H]3CCC4=C/C(=N/O)CC[C@@H]4[C@H]3CC[C@@]21CC [NORGESTIMATE]
Reply: > 30 µM

Ask: Enter AC50 (test system Melanocortin receptor 3 (Homo sapiens, UniProt P41968)) for CN(C)CCC[C@@]1(c2ccc(F)cc2)OCc2cc(C#N)ccc21 [ESCITALOPRAM]; also: assay procedure not described here
Reply: > 30 µM

Ask: Please report the measured AC50 for CC[C@@H]([C@H](C)O)n1ncn(-c2ccc(N3CCN(c4ccc(OC[C@@H]5CO[C@@](Cn6cncn6)(c6ccc(F)cc6F)C5)cc4)CC3)cc2)c1=O [POSACONAZOLE] tested on Melanocortin receptor 3 (Homo sapiens, UniProt P41968). Also: assay procedure not described here.
Reply: > 30 µM
